Tested on: HCT-15 colon
testProtocol: NCI tumour cell line growth inhibition, 48 h
measurementType: TGI

Recorded TGI, per entry:
compound: CO[C@H]1O[C@@H]2CO[C@@H](c3ccccc3)O[C@H]2[C@@H]2C/C=C\CCC[C@@]12O
studyTarget: HCT-15 colon
resultValue: 76.5 µM
//
compound: Cc1cc(NC(=O)C2C3C=CC(O3)C2C(=O)O)no1 (centres undefined)
studyTarget: HCT-15 colon
resultValue: 37.4 µM
//
compound: CC(C)OP(=O)(OC(C)C)C1=NN(c2ccc([N+](=O)[O-])cc2)C(P(=O)(OC(C)C)OC(C)C)=NN1c1ccc([N+](=O)[O-])cc1
studyTarget: HCT-15 colon
resultValue: > 100 µM
//
compound: O=C1C(=O)N(c2ccc(Cl)cc2)C(=O)C(=O)C1c1nc2ccccc2s1
studyTarget: HCT-15 colon
resultValue: > 100 µM
//
compound: CCOc1ccc2c(c1)C(=O)c1c-2n(CCCBr)c(=O)c2cc([N+](=O)[O-])ccc12
studyTarget: HCT-15 colon
resultValue: > 100 µM

Name the recorded TGI for "COc1cc2ncnc(-n3ncc4cc(NC(=O)Nc5ccc(Cl)c(Cl)c5)ccc43)c2cc1OC" . 4.87 µM

Name the recorded TGI for "CN(C)CCNC(=O)c1cccc2cc3cc(O)ccc3nc12" . 6.53 µM

Name the recorded TGI for "CCN1CCN(c2cc(C)nc(N(CCCNc3ccnc4cc(Cl)ccc34)Cc3ccc4c(c3)OCO4)n2)CC1" . 8.42 µM

Name the recorded TGI for "O=C(O)/C=C\C(=O)Nc1ccccn1" . > 100 µM

Name the recorded TGI for "Cc1ccnc2nc(N)ccc12" . > 100 µM

Name the recorded TGI for CC(C)(C)C(=O)OCC1OC(N=[N+]=[N-])C(OC(=O)C(C)(C)C)C(OC(=O)C(C)(C)C)C1OC(=O)C(C)(C)C (centres undefined) . > 100 µM

====

Test system: OVCAR-5 ovarian
testProtocol: NCI tumour cell line growth inhibition, 48 h
# TGI annotations

Recorded TGI, per entry:
compound: CCOc1ccc(N=NC2C(=O)N(C(=O)CC(=O)Nc3ccccc3)N=C2C)cc1 (configuration not stated)
TGI: > 100 µM
//
compound: COc1cccc(CN(C)c2ccc(CO)c(Cl)c2)c1
TGI: 1.91 µM

Name the recorded TGI for "CCOC(=O)c1c(C)nc2c(c1-c1cn(-c3ccccc3)nc1-c1ccccc1)C(=O)c1ccccc1-2" . > 100 µM

Name the recorded TGI for "CCCc1c(C(=O)OCC)[nH]c(-c2ccc(-c3[nH]c(C(=O)OCC)c(CCC)c3C(=O)OCC)s2)c1C(=O)OCC" . > 100 µM

Name the recorded TGI for CCOC(=O)C(C)Sc1nnc(COc2ccccc2OC)n1-c1ccccc1 (configuration not stated) . > 100 µM

====

# TGI annotations
System: RXF 393 renal
testProtocol: NCI tumour cell line growth inhibition, 48 h

compound: COCC1OC(S(=O)(=O)c2ccccc2)C(O)C(OC)C1OC (stereo unspecified)
measurementType: TGI
resultValue: > 100 µM

Name the recorded TGI for "CC(C)(C)CC(C)(C)NC(=S)NO" . > 100 µM

====

# TGI annotations
Test system: RPMI-8226 leukemia
testProtocol: NCI tumour cell line growth inhibition, 48 h

sampleSmiles: O=S1(=O)N(Cc2ccccc2)[C@@H](Cc2ccccc2)[C@H](O)[C@H](O)[C@H](Cc2ccccc2)N1Cc1ccccc1
measurementType: TGI
resultValue: > 20 µM
//
sampleSmiles: O=c1c2ccccc2nc(-c2ccccc2)n1NC(=S)Nc1ccc(Cl)cc1
measurementType: TGI
resultValue: > 100 µM
//
sampleSmiles: CCc1cccc(C)c1N1C(=O)C(=O)C(c2nc3ccccc3o2)C(=O)C1=O
measurementType: TGI
resultValue: > 100 µM
//
sampleSmiles: O=C1C[C@@H]2[C@@H](CCC23CC3)N1
measurementType: TGI
resultValue: > 100 µM

Name the recorded TGI for "CN(C)c1ccc(/C=C/C(=O)N[C@@H]2C(=O)N3[C@@H]2SC(C)(C)[C@@H]3C(=O)O)cc1" . > 100 µM

====

Test system: NCI-H522 lung
testProtocol: NCI tumour cell line growth inhibition, 48 h
Where a SMILES comes first, the peptide text is derived from it. The star is where a group is joined. Boc = CC(C)(C)OC(=O)*; OBn = c1ccc(CO*)cc1
measurementType: TGI

compound: COc1ccc2c(c1)OCCc1cn[nH]c1-2
TGI: > 100 µM
--
compound: CCCCCCCCCC(=O)N[C@@H](c1ccco1)[C@@H](O)C(=O)O[C@H]1C[C@@]2(O)[C@@H](OC(=O)c3ccccc3)[C@@H]3[C@]4(OC(C)=O)CO[C@@H]4C[C@H](O)[C@@]3(C)C(=O)[C@H](OC(C)=O)C(=C1C)C2(C)C
TGI: 0.631 µM
--
compound: CN(C)c1ccc(/C=C/C(=O)N[C@@H]2C(=O)N3[C@@H]2SC(C)(C)[C@@H]3C(=O)O)cc1
TGI: > 100 µM

Name the recorded TGI for "Cc1ccnc2nc(N)ccc12" . > 100 µM

Name the recorded TGI for "c1cc(-c2nnc(SSc3ncnc4nc[nH]c34)o2)ccn1" . > 100 µM

Name the recorded TGI for "Cc1c(OCc2ccccc2)c(=O)ccn1CCc1c[nH]c2ccccc12" . 69.4 µM

Name the recorded TGI for COC(=O)C(CCC(=O)CCl)N1C(=O)c2ccccc2C1=O (stereo unspecified) . 4.06 µM

Name the recorded TGI for "O=C(Sc1c(-c2ccccc2)c(=O)n(-c2ccccc2)c(=S)n1-c1ccccc1)c1cccs1" . > 100 µM

Name the recorded TGI for CC(C)CC(NC(=O)OC(C)(C)C)C(=O)NC(CC(=O)OCc1ccccc1)C(=O)OCc1ccccc1 (stereo not drawn) (Boc-Leu-Asp(OBn)-OBn; configuration not given here) . 79.2 µM

Name the recorded TGI for Clc1cccc(N2CCN(CCCN3CCc4c([nH]c5ccccc45)C3c3cccnc3)CC2)c1 (stereo unspecified) . 25.7 µM

Name the recorded TGI for "CN1CCN(CCOc2ccc(-c3cnc4c(-c5cccc(F)c5)cnn4c3)cc2)CC1" . 3.65 µM

Name the recorded TGI for "C=C[C@@]1(O)CCCC[C@@H]1CC(Sc1ccccc1)Sc1ccccc1" . 26.8 µM

Name the recorded TGI for "CCN(Cc1cc(F)ccc1F)c1ccc(CO)c(Cl)c1" . 29 µM

Name the recorded TGI for CCOC(=O)C(C)Sc1nnc(COc2ccccc2OC)n1-c1ccccc1 (stereo unspecified) . > 100 µM

Name the recorded TGI for "C=C/C(C)=C/C[C@]1(C)[C@H](C)[C@@H](OC(=O)CCC)[C@H](O)[C@@]23C(=C[C@H](OC)C[C@@H]12)[C@@H](OC(=O)CCC)O[C@H]3OC(C)=O" . 0.741 µM

Name the recorded TGI for "C#CCNC(=O)ON1C(=O)CCC1=O" . > 100 µM

Name the recorded TGI for "O=C1OC(c2ccccc2)=N/C1=C\c1ccc(Oc2ccc(Cl)c(Cl)c2)cc1" . > 100 µM

Name the recorded TGI for OCC(CCc1ccccc1I)C1=CCC2(CC1)OCCO2 (stereo unspecified) . 30.3 µM

Name the recorded TGI for O=CC(O)C(O)C(O)C1CNC(=S)O1 (stereo unspecified) . > 100 µM

Name the recorded TGI for "CS[C@]12[C@@H]3C(=O)N(C)C(=O)[C@@H]3[C@](C)(C(=O)N1C)C(=O)N2c1ccccc1" . > 100 µM

Name the recorded TGI for "Cc1ccc(-c2nnc(CCCCCCCCc3nnc(-c4ccc(C)cc4O)n3N)n2N)c(O)c1" . > 100 µM

Name the recorded TGI for "CCOC(=O)c1c(C)n(Cc2ccc(Cl)cc2Cl)c2c1cc1oc(=O)c(=O)n3cnc2c13" . 32.9 µM

====

Tested on: MCF7 breast
testProtocol: NCI tumour cell line growth inhibition, 48 h
measurementType: TGI

Recorded TGI, per entry:
compound: Cc1cc(C)c2c(n1)sc1c(N)ncnc12
studyTarget: MCF7 breast
resultValue: > 25 µM
//
compound: O=c1c2cc(-c3ccccc3)sc2ncn1Cc1ccc(Cl)c(Cl)c1
studyTarget: MCF7 breast
resultValue: > 100 µM
//
compound: C[S+](C)CC1OC(n2cnc3c(N)ncnc32)C(O)C1O (configuration not stated)
studyTarget: MCF7 breast
resultValue: > 225 µM
//
compound: COCC1OC(S(=O)(=O)c2ccccc2)C(O)C(OC)C1OC (configuration not stated)
studyTarget: MCF7 breast
resultValue: > 100 µM
//
compound: COc1cccc(CN(C)c2ccc(CO)c(Cl)c2)c1
studyTarget: MCF7 breast
resultValue: > 43.7 µM
//
compound: C=C(C)C1CC/C(C)=C/CC[C@]2(C)O[C@@H]2CCC2=CC1OC2=O (some centres not stated)
studyTarget: MCF7 breast
resultValue: > 100 µM

Okay, now this compound:
Request - read-out TGI | tested on MCF7 breast | compound "N=C(N)SCCC(=O)CCSC(=N)N" > 100 µM
